molecular target: VHL (VBC complex) (Homo sapiens, UniProt P40337); construct: equimolar complex of pVHL54-213, eloB1-104 and; made in house; host or cells: E. coli; assay: 19F CPMG NMR transverse relaxation rate (R2) and R2 contrast (C2) of spy molecule with and without protein; type: binding; details: Spy molecule 100 μM + VBC 1 μM, supplement 8.1
Sequence (P40337 54-213): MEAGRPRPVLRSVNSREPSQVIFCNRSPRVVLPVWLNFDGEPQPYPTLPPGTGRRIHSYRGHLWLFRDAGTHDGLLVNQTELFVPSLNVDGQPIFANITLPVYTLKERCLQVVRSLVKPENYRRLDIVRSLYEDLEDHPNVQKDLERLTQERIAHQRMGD
Sequence (Q15370 1-104 partner limits assumed): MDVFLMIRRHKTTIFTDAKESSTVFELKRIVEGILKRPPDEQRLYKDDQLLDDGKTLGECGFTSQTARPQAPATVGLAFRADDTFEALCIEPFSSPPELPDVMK
Sequence (Q15369 17-112 partner limits assumed): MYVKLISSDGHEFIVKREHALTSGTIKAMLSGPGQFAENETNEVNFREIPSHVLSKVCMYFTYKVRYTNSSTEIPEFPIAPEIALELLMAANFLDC
measured.metric: R2 contrast – C2 (%)

In the examples that follow, each entry is paired with its recorded R2 contrast – C2.
CC(=O)N1C[C@H](O)C[C@H]1C(=O)NCc1ccc(Br)cc1C(F)(F)F :: 51.9
Cc1ncsc1-c1ccc(CNC(=O)[C@@H]2C[C@@H](O)CN2C(=O)CC(C)(C)C)cc1C(F)(F)F :: 62.1
CC(=O)NC(C(=O)N1CC(O)CC1C(=O)NCc1ccc(-c2scnc2C)c(C(F)(F)F)c1)C(C)(C)C (stereo not shown) :: 17.7
CC(=O)NC(C(=O)N1CC(O)CC1C(=O)NCc1ccc(Br)c(C(F)(F)F)c1)C(C)(C)C (stereo not shown) :: 38.9
O=C(NCc1ccc(Br)cc1)C1CC(O)CN1C(=O)C(F)(F)F (stereo not shown) :: 62.0

A: CC(C)(C)CC(=O)N1C[C@H](O)C[C@H]1C(=O)NCc1ccc(Br)c(C(F)(F)F)c1
B: CC(=O)NC(C(=O)N1CC(O)CC1C(=O)NCc1ccc(-c2scnc2C)cc1C(F)(F)F)C(C)(C)C (stereo not shown)
Which entry has a larger number for R2 contrast – C2, A or B ? Refer to your chosen entry by its label in the reply. A

====

molecular target: VHL (VBC complex: pVHL54-213, eloB1-104, eloC17-112) (Homo sapiens); construct: equimolar complex of pVHL54-213, eloB1-104 and; made in house; host or cells: E. coli; assay: Surface plasmon resonance (SPR) steady-state binding to immobilised biotinylated AviVBC; conditions: SPR, 20 °C, steady-state 1:1 fit; footnote b values fitted because RMAX was not reached experimentally; read-out: K D, SPR
measured.metric: Kd (µM)

CC(=O)N1C[C@H](O)C[C@H]1C(=O)NCc1ccc(Br)c(C(F)(F)F)c1 :: 657

a: O=C(NCc1ccc(Br)cc1)C1CC(O)CN1C(=O)C(F)(F)F (stereo not shown)
b: CC(C)(C)CC(=O)N1C[C@H](O)C[C@H]1C(=O)NCc1ccc(Br)c(C(F)(F)F)c1
Field: lower recorded Kd (choose a or b ) Refer to your chosen entry by its label in the reply. b
(b: 407 µM, a: 645 µM)

a: Cc1ncsc1-c1ccc(CNC(=O)[C@@H]2C[C@@H](O)CN2C(=O)CC(C)(C)C)c(C(F)(F)F)c1
b: CC(=O)N1C[C@H](O)C[C@H]1C(=O)NCc1ccc(Br)cc1C(F)(F)F
Which entry has a larger number for Kd, a or b ? Refer to your chosen entry by its label in the reply. b

1: O=C(NCc1ccc(Br)cc1)C1CC(O)CN1C(=O)CC(F)(F)F (stereo not shown)
2: CC(=O)N1C[C@H](O)C[C@H]1C(=O)NCc1ccc(-c2scnc2C)c(C(F)(F)F)c1
Field: lower recorded Kd (choose 1 or 2 ) Refer to your chosen entry by its label in the reply. 1

====

target: VHL (VBC complex: pVHL54-213, eloB1-104, eloC17-112) (Homo sapiens, UniProt P40337); construct: equimolar complex of pVHL54-213, eloB1-104 and; made in house; host or cells: E. coli; test: Surface plasmon resonance (SPR) steady-state binding to immobilised biotinylated AviVBC; conditions: SPR, 20 °C, steady-state 1:1 fit; footnote b values fitted because RMAX was not reached experimentally; read-out: K D, SPR
measured.metric: Kd (µM)

P: Cc1ncsc1-c1ccc(CNC(=O)[C@@H]2C[C@@H](O)CN2C(=O)CC(C)(C)C)cc1C(F)(F)F
Q: CC(=O)NC(C(=O)N1CC(O)CC1C(=O)NCc1ccc(Br)cc1C(F)(F)F)C(C)(C)C (stereo not shown)
Field: lower recorded Kd (choose P or Q ) Refer to your chosen entry by its label in the reply. Q

A: CC(=O)NC(C(=O)N1CC(O)CC1C(=O)NCc1ccc(Br)c(C(F)(F)F)c1)C(C)(C)C (stereo not shown)
B: CC(=O)NC(C(=O)N1CC(O)CC1C(=O)NCc1ccc(-c2scnc2C)cc1C(F)(F)F)C(C)(C)C (stereo not shown)
Field: lower recorded Kd (choose A or B ) Refer to your chosen entry by its label in the reply. B

a: CC(=O)NC(C(=O)N1CC(O)CC1C(=O)NCc1ccc(-c2scnc2C)c(C(F)(F)F)c1)C(C)(C)C (stereo not shown)
b: CC(C)(C)CC(=O)N1C[C@H](O)C[C@H]1C(=O)NCc1ccc(Br)cc1C(F)(F)F
Field: lower recorded Kd (choose a or b ) Refer to your chosen entry by its label in the reply. a
(a: 2.99 µM, b: 110 µM)
